The reported measurements were obtained from patent US10870647B2.

// reported pIC50 per item
- System: MDA-MB-231
- Procedure Details: Real time cell proliferation, IncuCyte ZOOM, 72 hours
- Assay type: cell-based
- Test Parameters: Homo sapiens, MDA-MB-231, 72 h
pIC50: −log10 of the molar value.
Outcome Measure: pIC50

compound=CCN1CCN(Cc2ccc(NC(=O)c3ccc(C)c(C#Cc4cnc5c(Nc6cnn(CCN(C)C)c6)cccn45)c3)cc2C(F)(F)F)CC1 outcome_measure=pIC50 value_reported=6.04
compound=Cc1ccc(C(=O)Nc2cccc(C(F)(F)F)c2)cc1C#Cc1cnc2c(Nc3cc4n(n3)CCNC4)cccn12 outcome_measure=pIC50 value_reported=6.37
compound=CCN1CCN(Cc2ccc(NC(=O)c3ccc(C)c(C#Cc4cnc5c(Nc6cnn(CCCN(C)C)c6)cccn45)c3)cc2C(F)(F)F)CC1 outcome_measure=pIC50 value_reported=6.35
compound="Cc1cc(Nc2cccn3c(C#Cc4cc(C(=O)Nc5ccc(CN6CCC(N(C)C)C6)c(C(F)(F)F)c5)ccc4C)cnc23)no1 (stereo not drawn)" outcome_measure=pIC50 value_reported=6.09
compound=CCn1cc(Nc2cccn3c(C#Cc4cc(C(=O)Nc5ccc(CN6CC[C@H](N(C)C)C6)c(C(F)(F)F)c5)ccc4C)cnc23)cn1 outcome_measure=pIC50 value_reported=6.41
compound=Cc1ccc(C(=O)Nc2ccc(CN3CCN(C)CC3)c(C(F)(F)F)c2)cc1C#Cc1cnc2c(Nc3cnn(C)c3)cccn12 outcome_measure=pIC50 value_reported=6.73
